system: up to 32 different microorganisms; experiment: in vitro antibacterial activity (MIC), agar dilution on Brain Heart Infusion (BHI) agar with Steers replicator; assay type: cell-based; settings: organism code HH; unit assumed

Compound: CCC1OC(=O)C(C)C(=O)C(C)C(OC2OC(C)CC(N(C)C)C2O)C(C)(OCC=Cc2ccc3cc(OC)ccc3c2)CC(C)C(=O)C(C)C2NC(=O)OC12C (centres unmarked) [Example 283]
Assayed system: up to 32 different microorganisms
U: µg/mL
MIC: 0.2
--
Compound: CC[C@H]1OC(=O)[C@H](C)C(=O)[C@H](C)[C@@H](O[C@@H]2O[C@H](C)C[C@H](N(C)C)[C@H]2O)[C@@](C)(OCC=NOc2ccccc2)C[C@@H](C)C(=O)[C@H](C)[C@H]2NC(=O)O[C@@]21C [Example 228]
Assayed system: up to 32 different microorganisms
U: µg/mL
MIC: 0.78
--
Compound: CC[C@H]1OC(=O)[C@H](C)C(=O)[C@H](C)[C@@H](O[C@@H]2O[C@H](C)C[C@H](N(C)C)[C@H]2O)[C@@](C)(OCC#Cc2ccc3ncccc3c2)C[C@@H](C)C(=O)[C@H](C)[C@H]2NC(=O)O[C@@]21C [Example 254]
Assayed system: up to 32 different microorganisms
U: µg/mL
MIC: 0.1
--
Compound: CCC1OC(=O)C(C)C(=O)C(C)C(OC2OC(C)CC(N(C)C)C2O)C(C)(OCC=Cc2ccnc3ccccc23)CC(C)C(=O)C(C)C2NC(=O)OC12C (centres unmarked) [Example 213, R is —CH2CH═CH-(4-quinolyl)]
Assayed system: up to 32 different microorganisms
U: µg/mL
MIC: 0.2
--
Compound: CC[C@H]1OC(=O)[C@H](C)C(=O)[C@H](C)[C@@H](O[C@@H]2O[C@H](C)C[C@H](N(C)C)[C@H]2O)[C@@](C)(OCC#Cc2cnc3ccc([N+](=O)[O-])cc3c2)C[C@@H](C)C(=O)[C@H](C)[C@H]2NC(=O)O[C@@]21C [Example 248]
Assayed system: up to 32 different microorganisms
U: µg/mL
MIC: 0.05
